assay: yeast display, Sf9 membrane polyspecificity reagent, FACS + sequencing; frameworks hold sequencing errors
reportedProperty: polyreactivity (PSR sort gate)

Consider the following illustrative entries.
QVQLVESGGGLVQAGGSLRLSCAASGRTFLLYAMGWYRQAPGKERELVAAISSGGSTYYADSVKGRFTISRDNAKNTVYLQMNSLKPEDTAVYYCNAVYQHLASEYDYWGQGTQVTVSS low polyreactivity
QVQLVESGGGLVQAGGSLRLSCVPPDMGWYRQAPGKERELVAAISRGGITNYADSVKRRFTISRDNAKNTVYLQMNSLKPEDTAVYYCAAEYTYYSYGGNYDYWGQGTQVTVSS low polyreactivity
QVQLVESGGGLVQAGGSLRLSCAASGRIFQGYAMGWYRQAPGKERELVAAISYRGASTYYADSVKGRFTISRDNAKNTVYLQMNSLKPEDTAVYYCAKVTPTSTRGHDYWGQGTQVTVSS low polyreactivity
QVQLVESGGGLVQAGGSLRLSCAASGRTFEQYAMGWYRQAPGKERELVAAISKRGGSTYYADSVKGRFTISRDNAKNTVYLQMNSLKPEDTAVYYGATEKASNYFYRFDYWGQGTQVTVSS low polyreactivity
QVQLVESGGGLVQAGGSLRLSCAASGRTFGTYAMGWYRQAPGKERELVAAISRRGGTTYYADSVKGRFTISRDNAKNTVYLQMNSLKPEDTAVYYCNVYRVSFSVVPLGYWGQGTQVTVSS high polyreactivity

Field request: polyreactivity (PSR sort gate) | item: "QVQLVESGGGLVQAGGSIRLSCAASGSTFRGYSMGWYRQAPGKERELVAAISSRGARTHYADSVKGRFTISRDNSKNTVYLQMNCLKPEDTAVYDCAKVWVRSGRRKMDYWGQGTQVTVSS"
low polyreactivity

Field request: polyreactivity (PSR sort gate) | item: "QVQLVESGGGLVQAGGSLRLSCAASGSTFSGYDRGWYRQEPGKESEFVATITYSGGSTYYADSVKGRFTISRDNAKNTVYLQMNSLKPEDTAVYYCAADTPDAPDYSGLYYWGQGTQVTVSS"
low polyreactivity

---

experiment: yeast display, Sf9 membrane polyspecificity reagent, FACS + sequencing; frameworks hold sequencing errors
reportedProperty: polyreactivity (PSR sort gate)

Consider the following illustrative entries.
QVQLVESGGGLVQAGGSHRLSCAASGSIFHRYAMGWYRQAPGKERELVAGITWSGDSTYYADSVKGRFTISRDNAKNTVYLEMNSLKPEDTGVYYCAKRAPRHYKGVPAAWFGYWGQGTQVTVSS low polyreactivity
QVQLVESGGGLVQAGGSLRLSCAASGRIFYLYAMGWYRQAPGKERELVAAITNSDTSTYYADSVKGRFTISRDNAKNTVYLQMNSLKPEDTAVYYCAVSTQYYYFDYYYWGQGTQVTVSS high polyreactivity
QVQLVEAGGGLVQAGGSLRLSCAASGSIFGSYAMGWYRQAPGKERELVAAISGSGGRTYYADSVKGRFTISRDNAKISVYLQMNSLKPDDTAVYYCAAAYPRVTYNYGYYWGQGTQVTVSS high polyreactivity
QVQLVESGGGLVQAGGSLRLSCAASGFIFPPYDMGWYRQAPGKERELVADITYSDGITYYADSVKGRFTISRDNAMNTVYLQMNSLKPEDTAVYYCNADYSRIGPEVDYWGQGTQVTVSS low polyreactivity
QVQLVESGGGLDQAGGSLRLSCAASGFTFGYYAMGWYRQAPGKERELVATIDRGGGTSYADSVKGRFTISRDNAKNTVYLQMNSLKPEDTAVYYCNRAGYGAKARRYRSYWGQGTQVTVSS high polyreactivity

Field request: polyreactivity (PSR sort gate) | item: "QVQLVESGGRLVQAGGSLRLSCAASGSIFAVNAMGWYRQAPGKERELVAAIDWSDGITYYADSVKGRFTISRDNAKNTVYLKMNSLKPEDTALNYCAADATAYGWYVEQFSFYDNDYWGQGTQVTVSS"
high polyreactivity

---

assay: yeast display, Sf9 membrane polyspecificity reagent, FACS + sequencing; frameworks hold sequencing errors
reportedProperty: polyreactivity (PSR sort gate)

Consider the following illustrative entries.
QVQLVESGGRLVQAGGSLRLSCAASGSTINKYAMGWYRQAPGKERELVAAISRSGGSTNYADSVKGRFTISRDNAKNTVYLQMNSLKPEDNAVYYCNRTRYRSFHYDYWGQGTQVTVSS high polyreactivity
QVQLVESGGGLVQAGGSLRLSCAASGFIFRRYAMGWYRQAPGKERELVAAISGSGGRTYYADSVKGRFTISRDNAKNTVYLQMNSLKPEDTAVYYCAATYQYLKSGYYWGQGTQVTVSS high polyreactivity
QVQLVESGGGLVQAGGSLRLSCAASGLTFVWYAMGWYRQAPGKERELVASITRRGVSTYADSVKGRFTISRDNAKNTVYLQMNSLKPEDTAVYYCKAQLIYKKGWYDYWGQGTQVTVSS high polyreactivity
QVQLVESGGGLVQAGGSLRLSCAASGRIFSGYAMGWYRQAPGKERELVAAISQRGGSTTYADSVKGRFTISRDNAKKTVDLQMNSLKPEDTAVYDCAKRYTYPSGYDYWGQGTQVTVSS low polyreactivity
QVQLVESGGGLVQAGGSLRLSCAASGGIFRYYAMGWYRQAPGKERELVARISRRAGSTYYADSVKGRFTISRDNAKNTVYLQMNSLKPEDTAVYYCNKVGGTLGYDYWGQGTQVTVSS high polyreactivity
QVQLVESGGGLVQAGGSLRLSCAASGLIFRANSMGWYRQPPGKVRELVAAISSGGSTYYADSVKGRFTISRDNAKNTVYLQMNSLIPEDTAFYYCAALGQSPSRFGYWGQGTQVTVSS low polyreactivity

Note: attention shifts to another entry.
Field request: polyreactivity (PSR sort gate) | item: "QVQLVESGVGLLQEGGSLSLSCAASGRTFRWYGMGWYSQAPGKEREFVAAISFRGGTTYYADSVKGRFTISRDNAKNTVYLQMNSLKPEDTAVYYCAARSGYYTSDYKYYYWGQGTQVTVSS"
high polyreactivity

---

experiment: yeast display, Sf9 membrane polyspecificity reagent, FACS + sequencing; frameworks hold sequencing errors
reportedProperty: polyreactivity (PSR sort gate)

QVQLLESGGGLVQAGGSLRLSCAASGNTFYPNAMGWYRPAPGKETELVAAISSSGGSTYYADSVKGRFTISRDNAKNTVYLQMKSLNPEDTAVYYCASEFDYPLSGEYYYWGKGTQVTVSS high polyreactivity
QDQHVESGRGLVQAGGSLRLSCSASGTIFAYVMGWNIQAPRKERQLVAAISRSGGSTYYADSVKGRFTISRDNAKNTVYLQMNSLKPEDTAVFYCAAVGSTVFGTRYYYWGEGTQVTVSS high polyreactivity
QVQRVESGGGLVQAGGSLRLSCAASGFIITRYSMGWYRQAPGKEREMVAVINSSGGSTYYADSVKGRFTISRDTAKNTVYVQMNSLKPEDTAVYYCNALSRYRIWSYGYWGQGTQVTVSS high polyreactivity

---

experiment: yeast display, Sf9 membrane polyspecificity reagent, FACS + sequencing; frameworks hold sequencing errors
reportedProperty: polyreactivity (PSR sort gate)

Consider the following illustrative entries.
QVQLVESGGGLVQAGGSLRLSCAASGRIFGRYAMGWYIQAPGKERELVAAISRSGGITYYADSVKGRFTISRDNAKNTVYLQMNSLKPEDTAVYYCAAYRAGNSYYPRLNYWGQGTQVTVSS high polyreactivity
QVQLVESGGGLVQAGGSLRLSCAASGRTFVYNAMGWYRQAPGKERELVAAITRNGGSTYYADSVKGRFTISRDNAKNTVYLQMNSLKPEDTAVYYCNRDVRYVGRSGFDYWGQGTQVTVSS high polyreactivity
QVQLVESGGGLVQAGGSLRLSCAASGSTFPRYGMGWYRQAPGKERELVATITNGAITYYADSVKGRFTISRDNAKNTVYLQMNSLKPEDTAVYYCAARHFQVPDYFPEYHYWGQGTQVTVSS low polyreactivity
QVQLVESGGGLVQAGGSLRLSCAASGRTFYRSAMGWYRQAPGKERELVAAISSSGGRTYYADSVKGRFTISRDYAKNTVYLQMNSLKPEDTAVYYCNAAPSWSTSFDSWGQGTQVTVSS high polyreactivity
QVQLVESGGGLVQAGGSLRLSCPASGLIYYRYVMGWYRQAPGKERELVAAISGNGASTYYADSVKGRFTISRDNAKNTVFLQMNSLKPVDTAVYYCNADVYVSSKTHSSYPQWWGYDYWGQGTQVTVSS low polyreactivity

Field request: polyreactivity (PSR sort gate) | item: "QVQHVESGGGLEQARGSLRLTCAASGRTFRYYAMAWYRQAPGKERELVASISDGGSTNYADSVNGRFTITRDNAKNTVYLQMNRLKPEDTAVYYCNSKCYVWYLYDEFGYWGQGTQVTVSS"
low polyreactivity

---

test: yeast display, Sf9 membrane polyspecificity reagent, FACS + sequencing; frameworks hold sequencing errors
reportedProperty: polyreactivity (PSR sort gate)

QVQLVESGGGLVQAGGSLRLSCAASGFTFDHNDMGWYRQAPGKEMELVAAITWSAGSTYYADSVKGRFTISRDNAKNTVYLEMNSLKPEDTAVYYCAADAWYYSIYRGGDYWGQGTQVTVSS low polyreactivity
QVQLVESGGGLVQAGGSLRLSCAASGRIISYNDMGWYRPAPGKERELVAAISWGGGSTYYADSVKGRFTISRDNAKNTVYLQMNSLKPEDTAVYYCSKGWYRIKRNDYWGQGTQVTVSS low polyreactivity
QVQLVESGGGLVQAGGSLRLSCAASGIIFVIYAMVWYRQAPGKERELVAAISSSGGSTYYADSVKGRFTISRDNAKNTVYLLMNSLKPEDTAVYYCAVALSHYFGGYGYWGQGTQLTVSS low polyreactivity

Hey, just so you know, these numbers are from the nanobody polyreactivity screen of Harvey et al. (2022).
